- System: HepG2
- assay info: Cytotoxicity against human HepG2 cells assessed as cell growth measured after 72 hrs mby MTT assay
- Format: toxicity, cell-based
- particulars: hepg2, 72 h
Output 1 (yes) for records whose CC50 is lower than 60 µM, 0 (no) for records at or above 60 µM.

Task: Report whether reported CC50 is lower than 60 µM (strictly) for Cc1ncc([N+](=O)[O-])n1CC(=O)N[C@H](/C=C/S(=O)(=O)c1ccccc1)CCc1ccccc1
Result: 0 (no)

Task: Report whether reported CC50 is lower than 60 µM (strictly) for O=C(NC/C=C/S(=O)(=O)c1ccccc1)c1ccco1
Result: 0 (no)

Task: Report whether reported CC50 is lower than 60 µM (strictly) for O=C(N[C@H](/C=C/S(=O)(=O)c1ccccc1)CCc1ccccc1)c1cc(Cl)c([N+](=O)[O-])[nH]1
Result: 0 (no)

Task: Report whether reported CC50 is lower than 60 µM (strictly) for CNC(=O)CCCNC(=O)c1ccc([N+](=O)[O-])s1
Result: 0 (no)

Task: Report whether reported CC50 is lower than 60 µM (strictly) for CNC(=O)/C=C/CNC(=O)c1ccc([N+](=O)[O-])o1
Result: 0 (no)

Task: Report whether reported CC50 is lower than 60 µM (strictly) for CS(=O)(=O)/C=C/CNC(=O)c1ccc([N+](=O)[O-])s1
Result: 0 (no)

Task: Report whether reported CC50 is lower than 60 µM (strictly) for CNC(=O)/C=C/[C@H](CCc1ccccc1)NC(=O)c1ccc([N+](=O)[O-])o1
Result: 1 (yes)

Task: Report whether reported CC50 is lower than 60 µM (strictly) for CS(=O)(=O)CCCNC(=O)c1ccc([N+](=O)[O-])s1
Result: 0 (no)

Task: Report whether reported CC50 is lower than 60 µM (strictly) for CS(=O)(=O)CCCNC(=O)c1cccs1
Result: 0 (no)

Task: Report whether reported CC50 is lower than 60 µM (strictly) for CS(=O)(=O)/C=C/CNC(=O)c1ccc([N+](=O)[O-])o1
Result: 1 (yes)

Task: Report whether reported CC50 is lower than 60 µM (strictly) for CNC(=O)CCCNC(=O)c1cccs1
Result: 0 (no)

Task: Report whether reported CC50 is lower than 60 µM (strictly) for CNC(=O)/C=C/CNC(=O)c1ccc([N+](=O)[O-])s1
Result: 0 (no)

Task: Report whether reported CC50 is lower than 60 µM (strictly) for O=C(NCCCS(=O)(=O)c1ccccc1)c1ccc([N+](=O)[O-])o1
Result: 1 (yes)

Task: Report whether reported CC50 is lower than 60 µM (strictly) for CS(=O)(=O)/C=C/CNC(=O)c1cccs1
Result: 0 (no)

Task: Report whether reported CC50 is lower than 60 µM (strictly) for O=C(NC/C=C/S(=O)(=O)c1ccccc1)c1ccc([N+](=O)[O-])s1
Result: 1 (yes)
